binders and their reported % of binding vs wild-type fragment 15-37
system: T1, EGFRvIII amino acid residues 15 to 37 with Val17 to Ala mutation (human)
T1 construct: mutation is already in the entry
T1 peptide: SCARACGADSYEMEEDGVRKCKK
assay procedure: yeast display flow cytometry, Myc-normalized;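 note: Anti-EGFRvIII monoclonal antibodies tested by flow cytometry on yeast displaying alanine-substituted fragments, two-color indirect fluorescence with anti-Myc signal tracking fusion protein expression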
// note: answer is a bare numeric in %

# example entries with known answers
F263-5D8 (antibody, V domains shown, Mouse hybridoma mAb) VH: EVQLQQSGPDLVKPGSSVKISCKASGYTFTDYNIDWVKQSHGKSLEWIGTINPNYGGTSYNQKFKGKATLTVDKSSSTAYMELRSLTSEDSAVYYCARGYDYDLWFAYWGQGTLVTVSA VL: EIVLTQSPVFMAASPGEKVTITCSVSSSISSSNLHWYQQKSETSPKPWIYGTSNLASGVPVRFSGSGSGTSYSLTISSMEAEDAATYYCQQWSSYPLTFGAGTKLELK :: 144
F265-9C9 (antibody, V domains shown, Mouse hybridoma mAb) VH: QVQLQQPGAELVKPGASVKLSCKASGYTFTSYWMHWVKQRPGQDLEWIGEIDPSDSYTNYNQKFKGKATLTVDKSSSTAYIQLSSLTSEDSALYYCARFDFAYWGQGTLVTVSA VL: EIVLTQSPTLMAASPGEKVTITCSVSSSISSSNLHWYQQKSETSPKPWIYDTSNLASGVPIRFSGSGSGTSYSLTISSVEAEDAATYYCQQWSSYPLTFGSGTKLEIK :: 87.5
F263-4E11 (antibody, V domains shown, Mouse hybridoma mAb) VH: DVQLQESGPGLVKPSQSLSLTCTVTGYSITSDYAWNWIRQFPGNKLEWMGYIGYNGRTSYNPSLKSRISITRDTSKNQFFLQLNYVTTEDTATFYCARLGRGFAYWGQGTLVTVSA VL: DILMTQSPSSMSVSLGDTVSITCHASQGINSNIGWLLQKPGKSFKGLIYHGTNLEDGVPSRFSGSGSGTDYSLTISSLESEDFADYYCVQYAQFPYTFGGGTKLEIK :: 148

Turning to the following binder.
// F263-4B3 (antibody, V domains shown, Mouse hybridoma mAb) VH: EVQLQQSGPELVKPGSSVKISCKASGYTFTDYNMDWVKQSHGKSLEWIGTINPNNGGTSYNQKFKGKATLTVDKSSNTAYMELRSLTSEDSAVYYCARGYDYDLWFAYWGQGTLVTVSA VL: EIVLTQSPALMAASPGEKVTITCSVSSSISSSNLHWYQQKSETSPKPWIYGTSNLASGVPVRFSGSGSGTSYSLTISSMEAEDAATYYCQQWSSYPLTFGAGTKLELE : % of binding vs wild-type fragment 15-37 value = 146

Origin of values: patent US20220193132A1
